Assay: Biodistribution in U87MG tumor-bearing mice
Format: in vivo
Settings: female, CD-1 nude (athymic nude), mouse, pancreas, iv, 5 MBq per mouse, total radioactivity, i.v. ~5 MBq (~1 nmol), 2 h p.i., mean ± SD, n=3, read-out: Biodistribution, pancreas
Entries and their measured tissue uptake at 2 h follow.
Report the figure along with its unit, number first.

MOLECULE | tissue uptake at 2 h
N=C(N)NCCC[C@@H]1NC(=O)[C@H](CCCCNC(=O)CCC(C(=O)O)N2CCN(CC(=O)O)CCN(CC(=O)O)CC2)NC(=O)[C@@H](Cc2ccc(O)cc2)NC(=O)[C@H](CC(=O)O)NC(=O)CNC1=O (some centres unmarked) [^44Sc-NODAGA-RGD, metal not drawn] | 0.43 %ID/g

Below: the item to evaluate.
Query: Look up tissue uptake at 2 h for this molecule: N=C(N)NCCC[C@@H]1NC(=O)[C@H](CCCCNC(=O)CN2CCN(CC(=O)O)CCN(CC(=O)O)CCN(CC(=O)O)CC2)NC(=O)[C@@H](Cc2ccccc2)NC(=O)[C@H](CC(=O)O)NC(=O)CNC1=O [^44Sc-DOTA-RGD, metal not drawn]
Response: 0.35 %ID/g

* * *

Experiment: Biodistribution in AR42J tumor-bearing mice
Settings: female, CD-1 nude (athymic nude), mouse, AR42J tumor / blood, iv, total radioactivity, Tumor-to-blood ratio, i.v. ~5 MBq (~1 nmol), 2 h p.i., mean ± SD, n=3
READOUT TYPE: tissue to tissue ratio at 2 h
Simply state the number, no unit and no words.

Query: Look up tissue to tissue ratio at 2 h for this compound: C[C@@H](O)[C@@H]1NC(=O)[C@H](CCCCN)NC(=O)[C@@H](Cc2c[nH]c3ccccc23)NC(=O)[C@H](Cc2cccc3ccccc23)NC(=O)[C@@H](NC(=O)[C@@H](Cc2ccccc2)NC(=O)CCC(C(=O)O)N2CCN(CC(=O)O)CCN(CC(=O)O)CC2)CSSC[C@@H](C(=O)N[C@H](CO)[C@@H](C)O)NC1=O (stereo partly shown) [^44Sc-NODAGA-NOC, metal not drawn]
Response: 50.3

* * *

Entries and their measured tissue uptake at 0.5 h follow.
Experiment: Biodistribution in U87MG tumor-bearing mice
Type: in vivo
Details: female, CD-1 nude (athymic nude), mouse, brain, iv, 5 MBq per mouse, total radioactivity, i.v. ~5 MBq (~1 nmol), 30 min p.i., mean ± SD, n=3, read-out: Biodistribution, Brain

COMPOUND | OBS VALUE
N=C(N)NCCC[C@@H]1NC(=O)[C@H](CCCCNC(=O)CCC(C(=O)O)N2CCN(CC(=O)O)CCN(CC(=O)O)CC2)NC(=O)[C@@H](Cc2ccc(O)cc2)NC(=O)[C@H](CC(=O)O)NC(=O)CNC1=O (some centres unmarked) [^44Sc-NODAGA-RGD, metal not drawn] | 0.1 %ID/g

Below: the item to evaluate.
Query: Look up tissue uptake at 0.5 h for this compound: N=C(N)NCCC[C@@H]1NC(=O)[C@H](CCCCNC(=O)CN2CCN(CC(=O)O)CCN(CC(=O)O)CCN(CC(=O)O)CC2)NC(=O)[C@@H](Cc2ccccc2)NC(=O)[C@H](CC(=O)O)NC(=O)CNC1=O [^44Sc-DOTA-RGD, metal not drawn]
Response: 0.12 %ID/g

* * *

Test: Biodistribution in U87MG tumor-bearing mice
Assay type: in vivo
Conditions: female, CD-1 nude (athymic nude), mouse, liver, iv, total radioactivity, i.v. ~5 MBq (~1 nmol), 5 h p.i., mean ± SD, n=3, read-out: Biodistribution, Liver
READOUT TYPE: tissue uptake at 5 h

COMPOUND | tissue uptake at 5 h
N=C(N)NCCC[C@@H]1NC(=O)[C@H](CCCCNC(=O)CCC(C(=O)O)N2CCN(CC(=O)O)CCN(CC(=O)O)CC2)NC(=O)[C@@H](Cc2ccc(O)cc2)NC(=O)[C@H](CC(=O)O)NC(=O)CNC1=O (some centres unmarked) [^44Sc-NODAGA-RGD, metal not drawn] | ~1 %ID/g

Below: the item to evaluate.
Query: Look up tissue uptake at 5 h for this compound: N=C(N)NCCC[C@@H]1NC(=O)[C@H](CCCCNC(=O)CN2CCN(CC(=O)O)CCN(CC(=O)O)CCN(CC(=O)O)CC2)NC(=O)[C@@H](Cc2ccccc2)NC(=O)[C@H](CC(=O)O)NC(=O)CNC1=O [^44Sc-DOTA-RGD, metal not drawn]
Response: ~1 %ID/g

* * *

Test: Biodistribution in U87MG tumor-bearing mice
Format: in vivo
Conditions: female, CD-1 nude (athymic nude), mouse, heart, iv, 5 MBq per mouse, total radioactivity, i.v. ~5 MBq (~1 nmol), 30 min p.i., mean ± SD, n=3, read-out: Biodistribution, Heart
Entries and their measured tissue uptake at 0.5 h follow.
# output: bare number, implied unit %ID/g

COMPOUND | READOUT TYPE | OBS VALUE
N=C(N)NCCC[C@@H]1NC(=O)[C@H](CCCCNC(=O)CCC(C(=O)O)N2CCN(CC(=O)O)CCN(CC(=O)O)CC2)NC(=O)[C@@H](Cc2ccc(O)cc2)NC(=O)[C@H](CC(=O)O)NC(=O)CNC1=O (some centres unmarked) [^44Sc-NODAGA-RGD, metal not drawn] | tissue uptake at 0.5 h | 0.89

Query: Look up tissue uptake at 0.5 h for this compound: N=C(N)NCCC[C@@H]1NC(=O)[C@H](CCCCNC(=O)CN2CCN(CC(=O)O)CCN(CC(=O)O)CCN(CC(=O)O)CC2)NC(=O)[C@@H](Cc2ccccc2)NC(=O)[C@H](CC(=O)O)NC(=O)CNC1=O [^44Sc-DOTA-RGD, metal not drawn]
Response: 0.96

* * *

Experiment: Biodistribution in AR42J tumor-bearing mice
Conditions: female, CD-1 nude (athymic nude), mouse, lung, iv, total radioactivity, Biodistribution, i.v. ~5 MBq (~1 nmol), 2 h p.i., mean ± SD, n=3
READOUT TYPE: tissue uptake at 2 h (%ID/g)
# output: bare number, implied unit %ID/g

Query: Look up tissue uptake at 2 h for this molecule: C[C@@H](O)[C@@H]1NC(=O)[C@H](CCCCN)NC(=O)[C@@H](Cc2c[nH]c3ccccc23)NC(=O)[C@H](Cc2cccc3ccccc23)NC(=O)[C@@H](NC(=O)[C@@H](Cc2ccccc2)NC(=O)CCC(C(=O)O)N2CCN(CC(=O)O)CCN(CC(=O)O)CC2)CSSC[C@@H](C(=O)N[C@H](CO)[C@@H](C)O)NC1=O (stereo partly shown) [^44Sc-NODAGA-NOC, metal not drawn]
Response: 1.19

* * *

Experiment: Biodistribution in U87MG tumor-bearing mice
Assay type: in vivo
Conditions: female, CD-1 nude (athymic nude), mouse, U87MG tumor / kidneys, iv, total radioactivity, i.v. ~5 MBq (~1 nmol), 5 h p.i., mean ± SD, n=3, read-out: Tumor-to-kidney ratio
Entries and their measured tissue to tissue ratio at 5 h follow.
Simply state the number, no unit and no words.

Query: Look up tissue to tissue ratio at 5 h for this molecule: N=C(N)NCCC[C@@H]1NC(=O)[C@H](CCCCNC(=O)CCC(C(=O)O)N2CCN(CC(=O)O)CCN(CC(=O)O)CC2)NC(=O)[C@@H](Cc2ccc(O)cc2)NC(=O)[C@H](CC(=O)O)NC(=O)CNC1=O (some centres unmarked) [^44Sc-NODAGA-RGD, metal not drawn]
Response: 2.58

Query: Look up tissue to tissue ratio at 5 h for this molecule: N=C(N)NCCC[C@@H]1NC(=O)[C@H](CCCCNC(=O)CN2CCN(CC(=O)O)CCN(CC(=O)O)CCN(CC(=O)O)CC2)NC(=O)[C@@H](Cc2ccccc2)NC(=O)[C@H](CC(=O)O)NC(=O)CNC1=O [^44Sc-DOTA-RGD, metal not drawn]
Response: 1.82

* * *

Test: Biodistribution in AR42J tumor-bearing mice
Details: female, CD-1 nude (athymic nude), mouse, AR42J tumor / liver, iv, total radioactivity, Tumor-to-liver ratio, i.v. ~5 MBq (~1 nmol), 5 h p.i., mean ± SD, n=3
READOUT TYPE: tissue to tissue ratio at 5 h
Simply state the number, no unit and no words.

Query: Look up tissue to tissue ratio at 5 h for this compound: C[C@@H](O)[C@@H]1NC(=O)[C@H](CCCCN)NC(=O)[C@@H](Cc2c[nH]c3ccccc23)NC(=O)[C@H](Cc2cccc3ccccc23)NC(=O)[C@@H](NC(=O)[C@@H](Cc2ccccc2)NC(=O)CCC(C(=O)O)N2CCN(CC(=O)O)CCN(CC(=O)O)CC2)CSSC[C@@H](C(=O)N[C@H](CO)[C@@H](C)O)NC1=O (stereo partly shown) [^44Sc-NODAGA-NOC, metal not drawn]
Response: 11.6

* * *

Experiment: Biodistribution in AR42J tumor-bearing mice
Settings: female, CD-1 nude (athymic nude), mouse, AR42J tumor / blood, iv, total radioactivity, Tumor-to-blood ratio, i.v. ~5 MBq (~1 nmol), 5 h p.i., mean ± SD, n=3
READOUT TYPE: tissue to tissue ratio at 5 h

Query: Look up tissue to tissue ratio at 5 h for this compound: C[C@@H](O)[C@@H]1NC(=O)[C@H](CCCCN)NC(=O)[C@@H](Cc2c[nH]c3ccccc23)NC(=O)[C@H](Cc2cccc3ccccc23)NC(=O)[C@@H](NC(=O)[C@@H](Cc2ccccc2)NC(=O)CCC(C(=O)O)N2CCN(CC(=O)O)CCN(CC(=O)O)CC2)CSSC[C@@H](C(=O)N[C@H](CO)[C@@H](C)O)NC1=O (stereo partly shown) [^44Sc-NODAGA-NOC, metal not drawn]
Response: 78.6
